# System: 324938-238-R-J1-PDC complex spheroid viability
# procedure.text: Anticancer human tumor 324938-238-R-J1-PDC patient-derived bladder carcinoma cell line growth inhibition
# condition.label: second compound 3.16 µM; first compound 0.3 µM; stronger effect = lower value
# Description: Multicellular complex tumor spheroid response to LSD1 Inhibitor Iadademstat in combination with a variety of drugs and investigational agents in selected tumor cell lines The current study was undertaken to assess response to LSD1 inhibitors in combination with standard-of-care drugs and investigational agents in solid tumor complex spheroid models as well as in the K-562 leukemia. […] Compounds. […] If the clinical Cmax for an agent had not been determined, the highest concentration tested was 10 microM. […]
metric: viability, T/C

{"compound": "Nc1ccccc1NC(=O)c1ccc(CNC(=O)OCc2cccnc2)cc1 + NC1CCC(NC2CC2c2ccccc2)CC1", "result": "54.9%"}
{"compound": "Nc1ccn(C2OC(CO)C(O)C2(F)F)c(=O)n1 (configuration not stated) + NC1CCC(NC2CC2c2ccccc2)CC1", "result": "5.32%"}
{"compound": "Nc1ccn(C2OC(CO)C(O)C2(F)F)c(=O)n1 (configuration not stated) + NC1CC1c1ccc(-c2cccc(O)c2)cc1", "result": "5.23%"}
{"compound": "Nc1ccccc1NC(=O)c1ccc(CNC(=O)OCc2cccnc2)cc1 + NC1CC1c1ccc(-c2cccc(O)c2)cc1", "result": "59.2%"}
{"compound": "CCN(c1cc(-c2ccc(CN3CCOCC3)cc2)cc(C(=O)NCc2c(C)cc(C)[nH]c2=O)c1C)C1CCOCC1 + NC1CC1c1ccc(-c2cccc(O)c2)cc1", "result": "77.5%"}
{"compound": "CCc1c2c(nc3ccc(O)cc13)-c1cc3c(c(=O)n1C2)COC(=O)[C@]3(O)CC + NC1CC1c1ccc(-c2cccc(O)c2)cc1", "result": "0.31%"}
{"compound": "NS(=O)(=O)OCC1CC(n2ccc3c(NC4CCc5ccccc54)ncnc32)CC1O (configuration not stated) + NC1CCC(NC2CC2c2ccccc2)CC1", "result": "50.9%"}

---

Below is a list of entries, each paired with its recorded viability, T/C value.
# Tested on: 324938-238-R-J1-PDC complex spheroid viability
# procedure.text: Anticancer human tumor 324938-238-R-J1-PDC cell line growth inhibition;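 also: spheroids also contain HUVEC and human MSCs and agents combined with iadademstat; spheroids exposed to agents for 7 days before readout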
# condition.label: second compound 0.316 µM; first compound 3.16 µM; stronger effect = lower value
metric: viability, T/C

{"molecule": "CC(C)c1c(-c2ccccc2)nc2c(C#N)c[nH]n2c1=O + NC1CCC(NC2CC2c2ccccc2)CC1", "tested.on": "324938-238-R-J1-PDC complex spheroid viability", "result": "81.4%"}
{"molecule": "CC(C)c1c(-c2ccccc2)nc2c(C#N)c[nH]n2c1=O + NC1CC1c1ccc(-c2cccc(O)c2)cc1", "tested.on": "324938-238-R-J1-PDC complex spheroid viability", "result": "88.7%"}
{"molecule": "CC1COCCN1c1cc(C2(S(C)(=N)=O)CC2)nc(-c2ccnc3[nH]ccc23)n1 (centres undefined) + NC1CC1c1ccc(-c2cccc(O)c2)cc1", "tested.on": "324938-238-R-J1-PDC complex spheroid viability", "result": "20.5%"}
{"molecule": "CC1COCCN1c1cc(C2(S(C)(=N)=O)CC2)nc(-c2ccnc3[nH]ccc23)n1 (centres undefined) + NC1CCC(NC2CC2c2ccccc2)CC1", "tested.on": "324938-238-R-J1-PDC complex spheroid viability", "result": "30.4%"}

Taken from PubChem BioAssay AID1918935.
